Taken from the RNAGym collection of RNA variant scans (doi:10.7554/elife.80360).

B1: CPEB3 Ribozyme (parent)
chain: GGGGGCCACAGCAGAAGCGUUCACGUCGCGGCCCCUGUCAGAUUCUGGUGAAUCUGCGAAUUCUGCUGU

- Variants of: B1
- method: self-cleavage, relative activity (ratio to wild type); higher = more cleavage; co-transcriptional
Attribute: self-cleavage

mutantLabel | self-cleavage
A16U U20C | 0.196
G17A U64A | 0.211
C24U U46A | 0.852
C18U G58A | 0.801
A8C A52C | 0.941
C6A C12A | 0.16
C18A U69G | 0.307
G31U G65C | 0.358
G31C G37A | 0.19
G5C A23U | 0.333
U49C U62G | 0.932
G19U G25C | 0.122
G37A U64A | 0.246
G1U U67A | 0.167
A16U U69A | 0.923
G50C G65C | 0.585
U20G C39A | 0.169
A59C U62G | 0.423
A40C A59G | 0.515
G1A U49A | 0.075
G5C C34U | 0.3
C45G G50A | 1.01
